For each of the molecules below, state its melting point.
Counter-ions that a name gives are not always drawn.

I'd like to know its melting point. The molecule in question is "O=C(CN1CC2CCC(C1)N2c1ccc(C(F)(F)F)cn1)N1CCc2nn(-c3ccccc3)cc2C1"
212 to 213 °C

I'd like to know its melting point. The molecule in question is "O=C(CN1CC2CCC(C1)N2c1ncc(F)cn1)N1CCc2cc(-c3ccccc3)[nH]c2C1"
240 to 242 °C

I'd like to know its melting point. The molecule in question is CCOC(=O)c1ccc(N2C[C@@H](C)N(CC(=O)N3CCc4nn(-c5ccccc5)cc4C3)[C@@H](C)C2)nc1 (as salt: HCl)
235 to 236 °C

I'd like to know its melting point. The molecule in question is C[C@@H]1CN(c2ccc(C(F)(F)F)cn2)C[C@H](C)N1CC(=O)N1CCc2nn(C)cc2C1 (as salt: HCl)
50 to 51 °C

I'd like to know its melting point. The molecule in question is "COC(=O)c1ccc(N2C3CCC2CN(CC(=O)N2CCc4nn(-c5ccccc5)cc4C2)C3)nc1"
204 to 205 °C

I'd like to know its melting point. The molecule in question is COC(=O)c1ccc(N2C[C@@H](C)N(CC(=O)N3CCc4nn(-c5ccccc5)cc4C3)[C@@H](C)C2)nc1 (as salt: HCl)
210 to 212 °C

I'd like to know its melting point. The molecule in question is "O=C(CN1CCN(c2cccc(Cl)n2)CC1)N1CCc2nn(-c3ccccc3)cc2C1"
155 to 156 °C

###

Counter-ions that a name gives are not always drawn.
measuredQuantity: melting point

I'd like to know its melting point. The compound in question is "C[C@@H]1CN(CC(=O)N2CCc3nc(-c4ccccc4)sc3C2)[C@@H](C)CN1c1ccc(C(=O)O)cn1"
220 to 221 °C

I'd like to know its melting point. The compound in question is C[C@@H]1CN(c2cncnc2)C[C@H](C)N1CC(=O)N1CCc2nn(-c3ccccc3)cc2C1 (as salt: HCl)
166 to 167 °C

I'd like to know its melting point. The compound in question is "O=C(O)c1ccc(N2C3CCC2CN(CC(=O)N2CCc4nc(-c5ccsc5)sc4C2)C3)nc1"
262 to 264 °C

I'd like to know its melting point. The compound in question is "Cn1cc2c(n1)CCN(C(=O)CN1CC3CCC(C1)N3c1ncc(F)cn1)C2"
147 to 149 °C

I'd like to know its melting point. The compound in question is C[C@@H]1CN(c2ccc(C(=O)O)cn2)C[C@H](C)N1CC(=O)N1CCc2nn(-c3ccccc3)cc2C1 (as salt: HCl) [compound 21]
209 to 211 °C

I'd like to know its melting point. The compound in question is O=C(CN1CC2CCC(C1)N2c1ncc(F)cn1)N1CCc2c(cnn2CC(F)(F)F)C1 (as salt: oxalate)
160 to 162 °C

I'd like to know its melting point. The compound in question is "CC(C)OC(=O)c1ccc(N2C[C@@H](C)N(CC(=O)N3CCc4nn(-c5ccccc5)cc4C3)[C@@H](C)C2)nc1"
135 to 136 °C

I'd like to know its melting point. The compound in question is "C[C@@H]1CN(c2cnccn2)C[C@H](C)N1CC(=O)N1CCc2nn(-c3ccc(C(F)(F)F)cn3)cc2C1"
150 to 151 °C

I'd like to know its melting point. The compound in question is "O=C(CN1CC2CCC(C1)N2c1ncc(F)cn1)N1CCc2oc(-c3ccccc3)nc2C1"
88 to 89 °C

I'd like to know its melting point. The compound in question is O=C(CN1CCN(c2ccc(C(F)(F)F)cn2)C(=O)C1)N1CCc2c(cnn2CC(F)(F)F)C1 (as salt: oxalate)
82 to 83 °C

I'd like to know its melting point. The compound in question is "O=C(CN1CC2CCC(C1)N2c1ccc(C(F)(F)F)cn1)N1CCc2nn(-c3ccccn3)cc2C1"
170 to 171 °C

I'd like to know its melting point. The compound in question is "O=C(OC1CCC1)c1ccc(N2C3CCC2CN(CC(=O)N2CCc4nn(-c5ccccc5)cc4C2)C3)nc1"
176 to 177 °C

I'd like to know its melting point. The compound in question is "O=C(CN1CC2CCC(C1)N2c1cccnc1)N1CCc2nn(-c3ccccn3)cc2C1"
61 to 62 °C

I'd like to know its melting point. The compound in question is "C[C@@H]1CN(c2ncc(F)cn2)C[C@H](C)N1CC(=O)N1CCc2nn(-c3ccccc3)cc2C1"
174 to 175 °C

I'd like to know its melting point. The compound in question is "C[C@@H]1CN(CC(=O)N2CCc3nn(-c4ccccc4)cc3C2)[C@@H](C)CN1c1ccc(C#N)cn1"
156 to 159 °C

I'd like to know its melting point. The compound in question is "O=C(CN1CC2CCC(C1)N2c1ccc(C(F)(F)F)cn1)N1CCc2nc(-c3ccc(F)cc3)[nH]c2C1"
148 to 150 °C

I'd like to know its melting point. The compound in question is "C[C@@H]1CN(CC(=O)N2CCc3nn(-c4ccccc4)cc3C2)[C@@H](C)CN1c1ccc(C(=O)O)cn1"
165 to 167 °C

I'd like to know its melting point. The compound in question is "C[C@@H]1CN(c2ccc(C(F)(F)F)cn2)C[C@H](C)N1CC(=O)N1CCc2nn(-c3ccccn3)cc2C1"
165 to 166 °C

I'd like to know its melting point. The compound in question is "O=C(CN1CC2CCC(C1)N2c1ncc(F)cn1)N1CCc2nc(-c3ccncc3)sc2C1"
193 to 194 °C

I'd like to know its melting point. The compound in question is "COc1ccc(-c2nc3c(s2)CN(C(=O)CN2[C@H](C)CN(c4ncc(F)cn4)C[C@@H]2C)CC3)cc1"
159 to 161 °C

I'd like to know its melting point. The compound in question is "C[C@@H]1CN(c2ccc(-c3nnn(C)n3)cn2)C[C@H](C)N1CC(=O)N1CCc2nn(-c3ccccc3)cc2C1"
182 to 183 °C

I'd like to know its melting point. The compound in question is "O=C(CN1CC2CCC(C1)N2c1ccc(C(F)(F)F)cn1)N1CCc2nn(-c3ccc(C(F)(F)F)cn3)cc2C1"
192 to 193 °C

I'd like to know its melting point. The compound in question is "O=C(CN1CC2CCC(C1)N2c1ccc(C(F)(F)F)cn1)N1CCc2cc(-c3ccccc3)oc2C1"
155 °C

I'd like to know its melting point. The compound in question is "Cc1nc(-c2ccc(N3C4CCC3CN(CC(=O)N3CCc5nc(-c6ccccc6)sc5C3)C4)nc2)no1"
190 to 192 °C

I'd like to know its melting point. The compound in question is "C[C@@H]1CN(c2ccc3ccccc3n2)C[C@H](C)N1CC(=O)N1CCc2nn(-c3ccccc3)cc2C1"
203 to 204 °C

I'd like to know its melting point. The compound in question is "O=C(CN1CC2CCC(C1)N2c1ncc(F)cn1)N1CCc2cc(-c3ccccc3)oc2C1"
165 to 167 °C

I'd like to know its melting point. The compound in question is "O=C(CN1CC2CCC(C1)N2c1ccc(C(F)(F)F)cn1)N1CCc2nc(-c3ccccc3)[nH]c2C1"
150 to 152 °C

I'd like to know its melting point. The compound in question is "C[C@@H]1CN(c2ccc(Cl)cn2)C[C@H](C)N1CC(=O)N1CCc2nn(-c3ccc(C(F)(F)F)cn3)cc2C1"
165 to 166 °C

I'd like to know its melting point. The compound in question is "O=C(CN1CC2CCC(C1)N2c1ccc(-c2nnn[nH]2)cn1)N1CCc2nc(-c3ccccc3)sc2C1"
201 to 202 °C

I'd like to know its melting point. The compound in question is "C[C@@H]1CN(c2cccnc2)C[C@H](C)N1CC(=O)N1CCc2nn(-c3ccncc3)cc2C1"
163 to 164 °C

I'd like to know its melting point. The compound in question is "O=C(CN1CC2CCC(C1)N2c1ncc(F)cn1)N1CCc2nc(-c3cccnc3)sc2C1"
200 to 202 °C

###

For each of the molecules below, state its melting point.

I'd like to know its melting point. The molecule in question is COc1ccc(-c2nc3c(s2)CN(C(=O)CN2CC4CC2CN4c2ccc(C(F)(F)F)cn2)CC3)cc1 (stereo not shown) [compound 133]
70 to 73 °C

I'd like to know its melting point. The molecule in question is C[C@@H]1CN(c2ccc(C(=O)O)cn2)C[C@H](C)N1CC(=O)N1CCc2c(cnn2C(C)(C)C)C1 [compound 93]
150 to 151 °C

I'd like to know its melting point. The molecule in question is C[C@@H]1CN(c2ccc(C(=O)O)cn2)C[C@H](C)N1CC(=O)N1CCc2nn(-c3ccccc3)cc2C1 [compound 149]
208 to 209 °C

I'd like to know its melting point. The molecule in question is C[C@@H]1CN(c2ccc(C(F)(F)F)nc2)C[C@H](C)N1CC(=O)N1CCc2nc(-c3ccccc3)sc2C1 [compound 18]
168 to 169 °C

I'd like to know its melting point. The molecule in question is "COc1ccc(-c2nc3c(s2)CN(C(=O)CN2CC4CCC(C2)N4c2ncc(F)cn2)CC3)cc1"
203 to 207 °C

I'd like to know its melting point. The molecule in question is "O=C(CN1CC2CCC(C1)N2c1ccc(-c2ncon2)cn1)N1CCc2nn(-c3ccccc3)cc2C1"
201 to 202 °C

I'd like to know its melting point. The molecule in question is C[C@@H]1CN(c2ccc(-c3nccs3)cn2)C[C@H](C)N1CC(=O)N1CCc2nn(-c3ccccc3)cc2C1 [compound 135]
173 to 174 °C
